Parameter pEC50: see the listing below.
molecular target: mu opioid receptor (MOR) (Homo sapiens, UniProt P35372); experiment: PathHunter β-arrestin recruitment assay, PAM mode with EC20 endomorphin-1; format: cell-based; settings: β-arrestin recruitment; read-out: β-arr. EC50
Sequence (P35372 whole entry): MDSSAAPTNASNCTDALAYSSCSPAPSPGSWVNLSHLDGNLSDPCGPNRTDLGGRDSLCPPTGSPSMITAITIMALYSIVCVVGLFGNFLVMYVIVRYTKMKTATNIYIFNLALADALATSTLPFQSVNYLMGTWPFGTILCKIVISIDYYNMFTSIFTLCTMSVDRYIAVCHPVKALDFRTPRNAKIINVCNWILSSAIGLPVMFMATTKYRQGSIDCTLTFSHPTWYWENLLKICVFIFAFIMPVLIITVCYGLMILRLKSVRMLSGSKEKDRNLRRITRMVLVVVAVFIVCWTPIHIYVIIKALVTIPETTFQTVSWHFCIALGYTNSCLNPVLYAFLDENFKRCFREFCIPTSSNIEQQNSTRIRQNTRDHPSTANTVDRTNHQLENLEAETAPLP
pEC50: −log10 of the molar value.
Parameter measured: pEC50

>>> print(df.to_string())
                                    molecule  parameter_measured        result
 0  Fc1ccc(Cl)cc1CN1CCCCC1c1cccc(OC(F)(F)F)n1 (stereo not shown)               pEC50        > 6.15
 1  Fc1ccc(C2CCCCN2c2cccnc2N2CCOCC2)cc1Cl (stereo not shown)               pEC50        < 5.68
 2  Cc1ccc(N2CCCCC2c2ccc(F)c(Cl)c2)cc1 (stereo not shown)               pEC50        < 5.68
 3  COc1ccc(C2CCCCN2c2nc(Cl)ncc2F)cc1OC (stereo not shown)               pEC50        < 5.68
 4  Fc1ccc(C2C(F)CCCN2c2nc(Cl)ncc2F)cc1Br (stereo not shown) [compound 211]               pEC50        < 5.68
 5  COc1ccc(C2CC(C(F)(F)F)CN2S(=O)(=O)c2ccc(Cl)cc2)cc1Br (mixture of isomers) [Compound 86]               pEC50        < 5.68
 6  Fc1cnc(Cl)nc1N1CCCCC1c1ccc2cnnn2c1 (stereo not shown)               pEC50        < 5.68
 7  COc1ccc(C2CCCCN2S(=O)(=O)C2CC2)cc1Br (stereo not shown)               pEC50        < 5.68
 8  O=S(=O)(Cc1ccccc1Cl)N1CCCCC1c1cccc(C(F)(F)F)c1 (stereo not shown)               pEC50        < 5.68
 9  Fc1ccc(C2CCCCN2c2nc(Cl)ncc2F)cc1 (stereo not shown)               pEC50        > 6.15
10  Fc1cnc(Cl)nc1N1CCCCC1c1cnc2cnccn12 (stereo not shown)               pEC50        > 6.15
11  Cc1nccc(C2CCCCN2c2nc(Cl)ncc2F)n1 (stereo not shown)               pEC50        > 6.15
12  COc1ccc(C2C(F)CCCN2c2nc(Cl)ncc2F)cc1Br (stereo not shown) [compound 213]               pEC50        < 5.68
13  O=S(=O)(Cc1ccc(Cl)cc1)N1CCCC(F)C1c1ccc(F)c(Br)c1 (stereo not shown)               pEC50        < 5.68
14  COc1ncc(F)c(N2CCCCC2c2cccc(F)n2)n1 (stereo not shown)               pEC50        < 5.68
15  O=S(=O)(c1cccc(Cl)c1)N1CCCC(F)C1c1ccc(F)c(Br)c1 (stereo not shown)               pEC50        < 5.68
16  COc1ccc(C2CCCCN2S(=O)(=O)c2ccc(Cl)cc2)cc1C (racemic)               pEC50        < 5.68
17  Cc1cnc(N2CCCCC2c2cccc(C(F)(F)F)c2)nc1Cl (stereo not shown)               pEC50        < 5.68
18  Fc1ccc(C2COCCN2Cc2cc(Cl)ccc2F)cc1Cl (racemic)               pEC50  5.68 to 6.15
19  Fc1cnc(Cl)nc1N1CCOCC1c1cccc(C(F)(F)F)c1 (racemic)               pEC50        < 5.68
20  Cc1cnc(C2CCCCN2c2nc(Cl)ncc2F)o1 (stereo not shown)               pEC50        > 6.15
21  COc1ncc(F)c(N2CCCCC2c2ccc(OC)c(Br)c2)n1 (stereo not shown)               pEC50        < 5.68
22  COc1ccc(C2CCCCN2S(=O)(=O)c2ccc(F)cc2)cc1Br (stereo not shown)               pEC50        < 5.68
23  Fc1c(Cl)ncnc1N1CCCCC1c1cccc(C(F)(F)F)c1 (stereo not shown)               pEC50        > 6.15
24  OCCNc1cccc(C2CCCCN2Cc2cc(Cl)ccc2F)n1 (stereo not shown)               pEC50        < 5.68
25  Fc1cnc(Cl)nc1N1CCCCC1c1ccc(OC(F)(F)F)c(Br)c1 (stereo not shown)               pEC50        > 6.15
26  Cc1ccc(C(F)(F)F)cc1C1CCCCN1c1nc(Cl)ncc1F (stereo not shown)               pEC50        < 5.68
27  Cc1ccc(C2C(C)CCN2S(=O)(=O)c2ccc(Cl)cc2)cc1Br (mixture of isomers)               pEC50  5.68 to 6.15
28  CS(=O)(=O)N1CCN(c2nc(Cl)ncc2F)C(c2cc(F)cc(C(F)(F)F)c2)C1 (racemic)               pEC50        < 5.68
29  Fc1ccc(C2CCCCN2Cc2cncc(Cl)c2)cc1Cl (stereo not shown)               pEC50        < 5.68
30  O=S(=O)(c1ccc(Cl)cc1)N1CCCCC1c1cc(F)ccn1 (racemic)               pEC50        < 5.68
31  CNc1cccc(C2CCCCN2Cc2cc(Cl)ccc2F)n1 (stereo not shown)               pEC50        < 5.68
32  O=S(=O)(c1ccc(Cl)cc1)N1CCCCC1c1cncc(C(F)(F)F)n1 (stereo not shown)               pEC50        < 5.68
33  Fc1cnc(Cl)nc1N1CC(C(F)(F)F)CC1c1cccc(C(F)(F)F)c1 (stereo not shown)               pEC50        < 5.68
34  Fc1ccc(Cl)cc1CN1CCCCC1c1cccc(C(F)(F)F)n1 (stereo not shown)               pEC50        > 6.15
35  CC1CCN(S(=O)(=O)c2ccc(Cl)cc2)C1c1ccc(Br)c(F)c1 (mixture of isomers)               pEC50  5.68 to 6.15
36  COc1cc(C2CCCCN2S(=O)(=O)c2ccc(Cl)cc2)ccc1Br (stereo not shown)               pEC50  5.68 to 6.15

---

target: mu opioid receptor (MOR) (Homo sapiens, UniProt P35372); test: Hit Hunter cAMP signaling assay (adenylyl cyclase inhibition), PAM mode with EC20 endomorphin-1; format: cell-based; settings: cAMP EC50, adenylyl cyclase inhibition
Parameter measured: EC50

In [3]: df
Out[3]:
                                    compound          result
 0  [N-]=[N+]=Nc1ccc(N2CCCCC2c2ccc(F)c(Cl)c2)cc1 (stereo not drawn)       > 2100 nM
 1  FC(F)(F)c1cccc(C2CCCCN2Cc2cccc(Br)c2)n1 (stereo not drawn)        < 700 nM
 2  CC[C@@H]1CCCN(c2nc(Cl)ncc2F)[C@@H]1c1ccc(OC)c(Br)c1 (relative stereo)       > 2100 nM
 3  Fc1cnc(Cl)nc1N1CCCCC1c1cc(F)c(F)c(F)c1 (stereo not drawn)        < 700 nM
 4  Fc1cnc(Cl)nc1N1CCCCC1c1ccnc2ccccc12 (stereo not drawn)       > 2100 nM
 5  Fc1cnc(N2CCOCC2)nc1N1CCCCC1c1cccc(C(F)(F)F)c1 (stereo not drawn)       > 2100 nM
 6  COc1ccc(C2CCCCN2S(=O)(=O)c2ccc(C)cc2)cc1Br (stereo not drawn)  700 to 2100 nM
 7  Oc1ncc(F)c(N2CCCCC2c2cccc(C(F)(F)F)c2)n1 (stereo not drawn)        < 700 nM
 8  Fc1ccc(C2CCCCN2c2ccnc(Cl)n2)cc1Cl (stereo not drawn)       > 2100 nM
 9  Cc1coc(C2CCCCN2c2nc(Cl)ncc2F)n1 (stereo not drawn)        < 700 nM
10  COc1cnc(C2CCCCN2c2nc(Cl)ncc2F)nc1Cl (stereo not drawn)        < 700 nM
11  COc1ncccc1C1CCCCN1c1nc(Cl)ncc1F (stereo not drawn)        < 700 nM
12  Fc1cnc(Cl)nc1N1CCCCC1c1cccc(C(F)(F)F)n1 (stereo not drawn)        < 700 nM
13  COc1ncc(F)c(N2CCCCC2c2cccc(F)n2)n1 (stereo not drawn)       > 2100 nM
14  Fc1cnc(Cl)nc1N1CCCCC1c1cc(Cl)ccn1 (stereo not drawn)        < 700 nM
15  Fc1cnc(Cl)nc1N1CCCCC1c1cccc(OC(F)(F)F)n1 (stereo not drawn)  700 to 2100 nM
16  Fc1cnc(Cl)nc1N1CCCCC1c1cnccc1C(F)(F)F (stereo not drawn)        < 700 nM
17  COc1ccc(C2C(F)CCCN2S(=O)(=O)c2ccc(Cl)cc2)cc1Br (stereo not drawn)        < 700 nM
18  OC1CCN(c2nc(Cl)ncc2F)C(c2ccc(F)c(Cl)c2)C1 (stereo not drawn)  700 to 2100 nM
19  Fc1ccc(C2C3CCC(C3)N2c2nc(Cl)ncc2F)cc1Br (stereo not drawn)       > 2100 nM
20  Cc1ncc(F)c(N2CCCCC2c2cccc(F)n2)n1 (stereo not drawn)       > 2100 nM
21  Fc1cc(Cl)cc(CN2CCCCC2c2ccc(F)c(Cl)c2)c1 (stereo not drawn)  700 to 2100 nM
22  Fc1cnc(Cl)nc1N1CCCCC1c1cnc2cnccn12 (stereo not drawn)        < 700 nM
23  Fc1cnc(Cl)nc1N1CCCCC1c1cccc(C(F)(F)F)c1 (single isomer, unassigned) [compound 9]        < 700 nM
24  COC(=O)c1ccc(N2CCCCC2c2ccc(F)c(Cl)c2)cc1 (stereo not drawn)       > 2100 nM
25  Fc1ccc(C2CCCCN2Cc2cc(Cl)cc(Cl)c2)cc1Cl (stereo not drawn)       > 2100 nM
26  Fc1cnc(Cl)nc1N1CCCCC1c1ccccn1 (stereo not drawn)        < 700 nM
27  Cc1cnc(Cl)nc1N1CCCCC1c1cccc(F)n1 (stereo not drawn)       > 2100 nM
28  Fc1ccc(Cl)nc1N1CCCCC1c1cccc(C(F)(F)F)c1 (stereo not drawn)  700 to 2100 nM
29  Fc1cnc(Cl)nc1N1CCCCC1c1cccnc1F (stereo not drawn)        < 700 nM
30  Fc1ccc(N2CCCCC2c2ccc(F)c(Cl)c2)cc1 (stereo not drawn)       > 2100 nM
31  Fc1cnc(Cl)nc1N1CCC(F)(F)CC1c1cccc(C(F)(F)F)c1 (stereo not drawn)  700 to 2100 nM
32  Fc1cnc(Cl)nc1N1CCCCC1c1cccc(C(F)(F)F)c1F (stereo not drawn)        < 700 nM
33  Fc1cnc(Cl)nc1N1CCCCC1c1ccnc(C(F)(F)F)c1 (stereo not drawn)        < 700 nM
34  Cc1cnc(C2CCCCN2c2nc(Cl)ncc2F)o1 (stereo not drawn)        < 700 nM
35  COc1ccc(C2C3CCC(C3)N2c2nc(Cl)ncc2F)cc1Br (stereo not drawn)       > 2100 nM
36  Cc1noc(C2CCCCN2c2nc(Cl)ncc2F)n1 (stereo not drawn)        < 700 nM
37  Fc1cccc(C2CCCCN2c2ccnc(Cl)n2)n1 (stereo not drawn)       > 2100 nM
38  COc1ccc(C2CCCCN2S(=O)(=O)c2ccn(C)n2)cc1Br (stereo not drawn)       > 2100 nM
